Values compiled from ChEMBL document CHEMBL1649296.

Test system: Mycolicibacterium smegmatis
Protocol notes: Antimycobacterial activity against Mycobacterium smegmatis assessed as growth inhibition in mid-logarithmic phase by spectrophotometry
Type: functional, organism-based
Numbered stars: 1 amine (or outer) side, 2 acyl side, 3 side chain; on linkers, the order of the positions; unused ones are H or OH. Bridge positions count the residues as written; N and C are the ends. Square brackets hold non-standard residues; d marks the D form. Peptide text beside a SMILES is read from it. * marks the point of attachment. ξ: configuration not given here. X1 = N=C1NCCC([C@H](N[*:1])C(=O)[*:2])N1; ΔAla(Z-3-ureido) = NC(=O)N/C=C(\N)C(=O)O; ξβ3hOrn = NCCCC(N)CC(=O)*; Dap = NC[C@H](N)C(=O)O
With a cut-off of 2000 nM, any IC50 strictly below it is called fulfilled; any IC50 meeting it or above is called not fulfilled.

Given CCc1cc(C(N)=S)ccn1 [ETHIONAMIDE] , is recorded IC50 strictly lower than 2000 nM?
not fulfilled

API: query returns whether the compound falls strictly under 2000 nM in IC50. Query: CO[C@H]1/C=C/O[C@@]2(C)Oc3c(C)c(O)c4c(O)c(c(/C=N/N5CCN(C)CC5)c(O)c4c3C2=O)NC(=O)/C(C)=C\C=C\[C@H](C)[C@H](O)[C@@H](C)[C@@H](O)[C@@H](C)[C@H](OC(C)=O)[C@@H]1C [RIFAMPIN]
not fulfilled

Please state whether IC50 is below 2000 nM for CN(C)[C@@H]1C(O)=C(C(N)=O)C(=O)[C@@]2(O)C(O)=C3C(=O)c4c(O)cccc4[C@@](C)(O)[C@H]3C[C@@H]12 [TETRACYCLINE]
fulfilled

Is 2000 nM strictly greater than the compound's reported IC50? compound: C[C@@H]1NC(=O)[C@@H](N)CNC(=O)[C@H](C2CCNC(=N)N2)NC(=O)/C(=C/NC(N)=O)NC(=O)[C@H](CNC(=O)CC(N)CCCN)NC1=O.N=C1NCCC([C@@H]2NC(=O)/C(=C/NC(N)=O)NC(=O)[C@H](CNC(=O)CC(N)CCCN)NC(=O)[C@H](CO)NC(=O)[C@@H](N)CNC2=O)N1 (stereo partly drawn) [CAPREOMYCIN] (H-[Dap]S[Dap](ξβ3hOrn)[ΔAla(Z-3-ureido)][X1]; lactam 1-C)
not fulfilled

Does the reported IC50 of CN[C@@H]1[C@H](O[C@H]2[C@H](O[C@H]3[C@H](O)[C@@H](O)[C@H](N=C(N)N)[C@@H](O)[C@@H]3N=C(N)N)O[C@@H](C)[C@]2(O)C=O)O[C@@H](CO)[C@H](O)[C@H]1O [STREPTOMYCIN] stay below 2000 nM?
fulfilled

Criterion: IC50 strictly below 2000 nM. Is it met by CC[C@@H](CO)NCCN[C@@H](CC)CO [ETHAMBUTOL] ?
not fulfilled

###

Test system: Mycolicibacterium smegmatis
Protocol notes: Antimycobacterial activity against Mycobacterium smegmatis grown in carbon-limited broth medium assessed as growth inhibition in mid-logarithmic phase by GFP-based fluorescence assay
Assay type: functional, organism-based
Assay conditions: Mycolicibacterium smegmatis
Counter-ions that a name gives are not always drawn.
Recorded endpoint: IC50 (µM)
The answer is to be given in µM; state only the numeric part.

Observed IC50 on Mycolicibacterium smegmatis, entry CCn1cc(C(=O)O)c(=O)c2cc(F)c(N3CCNC(C)C3)c(F)c21 (stereo not drawn) , equals 4.88

Field IC50 (Mycolicibacterium smegmatis), entry `c1ccc2c(c1)[I+]c1ccccc1-2` : 8.53

Value sought: IC50, system Mycolicibacterium smegmatis, item `O=S1(=O)N(CCN2CC=C(c3c[nH]c4cc(F)ccc34)CC2)c2cccc3c2N1CCC3` . Result: 25.3

Fill in: Mycolicibacterium smegmatis IC50 for `CC(=O)[C@]1(O)Cc2c(O)c3c(c(O)c2[C@@H](O[C@H]2C[C@H](N)[C@H](O)[C@H](C)O2)C1)C(=O)c1ccccc1C3=O` = 6.68

Measured IC50 for this entry `C[C@H]1c2cccc(O)c2C(=O)C2=C(O)[C@]3(O)C(=O)C(C(N)=O)=C(O)[C@@H](N(C)C)[C@@H]3[C@@H](O)[C@@H]21` on Mycolicibacterium smegmatis: 2.98

The measured IC50 that `CN1CCN(CCCN2c3ccccc3Sc3ccc(C(F)(F)F)cc32)CC1` showed for Mycolicibacterium smegmatis is 12.3

Query COc1ccccc1CNCCCCCCNCCCCCCCCNCCCCCCNCc1ccccc1OC [METHOCTRAMINE HYDROCHLORIDE] on Mycolicibacterium smegmatis; IC50 returned: 6.88

Value (IC50, Mycolicibacterium smegmatis) for record `CC(C)(C)c1ccc(S(=O)(=O)/C=C/C#N)cc1` = 2.58
